target: ZFP SBS#209 (synthetic); test: EMSA; details: tags: MBP fusion
Sequence (chain, as listed by the source): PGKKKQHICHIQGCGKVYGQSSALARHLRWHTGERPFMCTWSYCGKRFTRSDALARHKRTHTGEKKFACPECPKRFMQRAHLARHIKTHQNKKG
parameter.measured: Kd (nM)
One number for each entry, in nM.

Q: Recorded Kd of GGAGTGGTT (dsDNA) DNA 1: GGAGTGGTT DNA 2: AACCACTCC , please.
Result: 35
